Dear all, I have gathered published pIC50 values for IRAK4 (Homo sapiens (Human)); the list follows.
Answers are plain numbers, as −log10 of the molar value.

>>> df
                                item_smiles  measurement_type  readout_value
0  CC(C)(O)[C@H](F)CNC(=O)c1cnc(-c2ccc3cc(C#N)cnn23)cc1N[C@H]1CC[C@H](c2cc[nH]n2)CC1             pIC50           9.09
1  CCCCc1cn(-c2cnc(-n3ncc4cc(C#N)cnc43)cc2NC(C)C)nn1             pIC50           8.52
2  CC(C)Nc1cc(-n2ncc3cc(C#N)cnc32)ncc1-c1cn(-c2ccccc2F)nn1             pIC50           8.15

Here is the next item to consider.
Field request: pIC50 | item: "CC(C)Nc1cc(-c2cnn3cc(Cl)cnc23)ncc1C(=O)NC1CCN(S(=O)(=O)C(C)C)CC1"
7.59

---

Dear all, I have gathered published IC50 values for IRAK4 (Homo sapiens (Human)); the list follows.
With a cut-off of 5 nM, any IC50 strictly below it is called True; any IC50 meeting it or above is called False.

Example entries and their recorded answers appear below.
>>> print(df.to_string())
                                   compound  class_assignment
0  COCCN1CCC(n2cc3cc(NC(=O)c4cccc(C(F)(F)F)n4)c(OC)cc3n2)CC1              True
1  CNC(=O)[C@H]1CC[C@H](NC(=O)c2cnc(-c3cnn4cc(Cl)cnc34)cc2NCC(C)(C)F)CC1             False
2  COc1cc(Nc2ncc(-c3nc4cnccc4s3)c(N[C@@H]3CC(C(C)(C)O)[C@@H](O)[C@H]3O)n2)ccn1 (stereo in doubt)              True
3  COc1cc2nn(C3CCS(=O)(=O)CC3)cc2cc1NC(=O)c1cccc(C(F)(F)F)n1              True

Could you now consider this next compound?
Please indicate whether the reported IC50 of "COc1ccc(Cn2cc(-c3cnc(-n4ncc5cc(C#N)cnc54)cc3NC(C)C)nn2)cc1" is strictly below 5 nM.
False

---

Dear all, I have gathered published IC50 values for IRAK4 (Homo sapiens (Human), UniProt Q9NWZ3); the list follows.
With a cut-off of 3 nM, any IC50 strictly below it is called 1; any IC50 meeting it or above is called 0.

Example entries and their recorded answers appear below.
                                   compound  class_assignment
0  NC(=O)[C@@H]1[C@H](Nc2nc(Nc3cccc(C(=O)N4CCCC4)c3)ncc2-c2ccccc2F)[C@H]2C=C[C@@H]1C2                 0
1  CC(C)Nc1c(-c2cn(CCS(C)(=O)=O)nn2)cnc2ccc(-c3cn[nH]c3)cc12                 0
2  COc1ccc(C(=O)N2CCC3(CCC(CCN4CCC(n5cc6cc(NC(=O)c7cccc(C(F)(F)F)n7)c(C(C)(C)O)cc6n5)CC4)CC3)CC2)cc1N1CCC(=O)NC1=O                 0

Please indicate whether the reported IC50 of "CC(C)(O)[C@H](F)CNC(=O)c1cnc(Nc2ccc3ncsc3c2)cc1NC12CCC(O)(CC1)C2" is strictly below 3 nM.
1

Please indicate whether the reported IC50 of "CC(C)(O)c1cnc(Nc2cc(Nc3ccn4nccc4n3)ncc2C(=O)NC[C@@H](F)C(C)(C)O)s1" is strictly below 3 nM.
0
